Below, each entry is listed with its recorded Kd.
test-system: PikCD50NH238A (Streptomyces venezuelae, UniProt O87605, D50N/H238A)
assay-notes: Spectroscopic equilibrium substrate binding assay, PikCD50NH238A mutant
Answer format: numeric, µM implied, no suffix.

Check out these entries, answers already filled in.
>  <molecule>
CC[C@H]1OC(=O)[C@H](C)[C@@H](OC(=O)[C@@H]2CCCN2C)[C@@H](C)C[C@@H](C)C(=O)/C=C/[C@H]1C [12b]

>  <measure-unit>
µM

>  <Kd>
21

$$$$
>  <molecule>
CC[C@H]1OC(=O)[C@H](C)[C@@H](OC(=O)CCCN(C)C)[C@@H](C)C[C@@H](C)C(=O)/C=C/[C@H]1C

>  <measure-unit>
µM

>  <Kd>
168

$$$$
>  <molecule>
CC[C@H]1OC(=O)[C@H](C)[C@@H](OC(=O)CCN(C)C)[C@@H](C)C[C@@H](C)C(=O)/C=C/[C@H]1C

>  <measure-unit>
µM

>  <Kd>
161

$$$$

Now take the following molecule into account.
Record lookup: for PikCD50NH238A (Streptomyces venezuelae, UniProt O87605, D50N/H238A), what Kd belongs to CC[C@H]1OC(=O)[C@H](C)[C@@H](OC(=O)[C@H]2CCCN2C)[C@@H](C)C[C@@H](C)C(=O)/C=C/[C@H]1C [12a] ?
19

====

Below is a list of entries, each paired with its recorded Kd value.
test-system: PikCD50N-RhFRED (Streptomyces venezuelae, UniProt O87605, D50N)
assay-notes: Spectroscopic equilibrium substrate binding assay, PikCD50N-RhFRED
Number first, unit second: that is the form wanted.

Recall the recorded Kd for CC[C@H]1OC(=O)[C@H](C)[C@@H](OC(=O)CCCN(C)C)[C@@H](C)C[C@@H](C)C(=O)/C=C/[C@H]1C [compound 10] with PikCD50N-RhFRED (Streptomyces venezuelae, UniProt O87605, D50N) and state it.
123 µM

Can you look up Kd on PikCD50N-RhFRED (Streptomyces venezuelae, UniProt O87605, D50N) for CC[C@H]1OC(=O)[C@H](C)[C@@H](OC(=O)[C@@H]2CCCN2C)[C@@H](C)C[C@@H](C)C(=O)/C=C/[C@H]1C [12b] ?
28 µM

Give recorded Kd with PikCD50N-RhFRED (Streptomyces venezuelae, UniProt O87605, D50N) for the following compound: CC[C@H]1OC(=O)[C@H](C)[C@@H](OC(=O)[C@H]2CCCN2C)[C@@H](C)C[C@@H](C)C(=O)/C=C/[C@H]1C [12a]
47 µM

Form: Entry = CC[C@H]1OC(=O)[C@H](C)[C@@H](OC(=O)CCN(C)C)[C@@H](C)C[C@@H](C)C(=O)/C=C/[C@H]1C [8b] | System = PikCD50N-RhFRED (Streptomyces venezuelae, UniProt O87605, D50N) | Kd = ____
81 µM

Measured values drawn from paper PMC4012894 for this set.
